- System: MOLP-8 human multiple myeloma cell line
- procedure_summary: Caspase-Glo 3/7 apoptosis induction assay in MOLP-8 cells
- Format: cell-based
- measurement_parameters: 2 hours at 37° C., caspase-3/7 luminescence, averaged over all runs on all batches, read-out: MOLP8 Caspase-Glo AC50
Please use Met for AC50 under 400 nM and Not met for everything else, ties included.

{"compound": "Cc1c2c(nn1C)COCc1cc(n(C)n1)CCc1cc(c3ccccc3c1)OCCCc1c(C(=O)O)n(C)c3c-2c(Cl)ccc13 (single isomer, unassigned) [Compound 1]", "experimental_target": "MOLP-8 human multiple myeloma cell line", "classification": "Met"}
{"compound": "Cc1c2c(nn1C)C(C)OCc1cc(n(C)n1)CSc1cc(c3ccccc3c1)OCCCc1c(C(=O)O)n(C)c3c-2c(Cl)ccc13 (single isomer, unassigned) [Compound 9]", "experimental_target": "MOLP-8 human multiple myeloma cell line", "classification": "Met"}
{"compound": "CCc1c2c(nn1C)COCc1cc(n(C)n1)CSc1cc(c3ccccc3c1)OCCCc1c(C(=O)O)n(C)c3c-2c(Cl)ccc13 (single isomer, unassigned) [Compound 8]", "experimental_target": "MOLP-8 human multiple myeloma cell line", "classification": "Not met"}
{"compound": "COCCOCCn1nc2c(c1C)-c1c(Cl)ccc3c(c(C(=O)O)n(C)c13)CCCOc1cc(cc3cc(F)ccc13)CCc1cc(nn1C)COC2 (single isomer, unassigned) [Compound 20]", "experimental_target": "MOLP-8 human multiple myeloma cell line", "classification": "Not met"}

----------
Entries below carry reported pKi on Myeloid Cell Leukemia 1 (Mcl-1) (Homo sapiens, UniProt Q07820).
Sequence (Q07820 whole entry): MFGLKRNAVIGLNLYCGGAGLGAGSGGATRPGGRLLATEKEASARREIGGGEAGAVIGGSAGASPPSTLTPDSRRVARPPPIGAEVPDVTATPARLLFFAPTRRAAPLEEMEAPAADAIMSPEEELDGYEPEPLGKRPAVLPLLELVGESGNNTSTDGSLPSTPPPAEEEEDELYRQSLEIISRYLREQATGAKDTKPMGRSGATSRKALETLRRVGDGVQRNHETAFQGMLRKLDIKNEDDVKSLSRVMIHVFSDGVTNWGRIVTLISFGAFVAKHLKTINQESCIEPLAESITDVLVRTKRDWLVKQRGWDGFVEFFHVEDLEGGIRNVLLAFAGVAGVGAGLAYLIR
pKi: −log10 of the molar value.

{"molecule": "Cc1c2c(nn1C)COCc1cc(n[nH]1)CSc1cc(c3ccccc3c1)OCCCc1c(C(=O)O)n(C)c3c-2c(Cl)ccc13 (single isomer, unassigned) [Compound 13]", "experimental_target": "Myeloid Cell Leukemia 1 (Mcl-1) (Homo sapiens, UniProt Q07820)", "pKi": 9.89}
{"molecule": "Cc1c2c(nn1C)COCc1cc(n(CCN(C)C)n1)CSc1cc(c3ccccc3c1)OCCCc1c(C(=O)O)n(C)c3c-2c(Cl)ccc13 (single isomer, unassigned) [Compound 16]", "experimental_target": "Myeloid Cell Leukemia 1 (Mcl-1) (Homo sapiens, UniProt Q07820)", "pKi": 10.14}
{"molecule": "Cc1c2c(nn1C)COCc1cc(nn1CCN(C)C)CSc1cc(c3ccccc3c1)OCCCc1c(C(=O)O)n(C)c3c-2c(Cl)ccc13 (single isomer, unassigned) [Compound 15]", "experimental_target": "Myeloid Cell Leukemia 1 (Mcl-1) (Homo sapiens, UniProt Q07820)", "pKi": 9.95}
{"molecule": "Cc1c2c(nn1C)COCc1cc(n(C)n1)CSc1cc(c3ccccc3c1)OCCCc1c(C(=O)O)n(C)c3c-2c(Cl)ccc13 (single isomer, unassigned) [Compound 5]", "experimental_target": "Myeloid Cell Leukemia 1 (Mcl-1) (Homo sapiens, UniProt Q07820)", "pKi": 10.24}
{"molecule": "Cc1c2c(nn1C)COCc1cc(n(C)n1)CCc1cc(c3ccccc3c1)OCCCc1c(C(=O)O)n(C)c3c-2c(Cl)ccc13 (single isomer, unassigned) [Compound 1]", "experimental_target": "Myeloid Cell Leukemia 1 (Mcl-1) (Homo sapiens, UniProt Q07820)", "pKi": 10.33}
{"molecule": "CCc1c2c(nn1C)COCc1cc(n(C)n1)CSc1cc(c3ccccc3c1)OCCCc1c(C(=O)O)n(C)c3c-2c(Cl)ccc13 (single isomer, unassigned) [Compound 7]", "experimental_target": "Myeloid Cell Leukemia 1 (Mcl-1) (Homo sapiens, UniProt Q07820)", "pKi": 10.26}
{"molecule": "COCCOCCn1nc2c(c1C)-c1c(Cl)ccc3c(c(C(=O)O)n(C)c13)CCCOc1cc(cc3cc(F)ccc13)CCc1cc(nn1C)COC2 (single isomer, unassigned) [Compound 18]", "experimental_target": "Myeloid Cell Leukemia 1 (Mcl-1) (Homo sapiens, UniProt Q07820)", "pKi": 10.70}

----------
- experimental_target: Myeloid Cell Leukemia 1 (Mcl-1) (Homo sapiens)

{"compound": "COCCOCCn1nc(C)c2c1COCc1cc(n(C)n1)CCc1cc(c3ccc(F)cc3c1)OCCCc1c(C(=O)O)n(C)c3c-2c(Cl)ccc13 (single isomer, unassigned) [Compound 19]", "experimental_target": "Myeloid Cell Leukemia 1 (Mcl-1) (Homo sapiens)", "unit_name": "nM", "Ki": 1.34}
{"compound": "Cc1c2c(nn1C)C(C)OCc1cc(n(C)n1)CSc1cc(c3ccccc3c1)OCCCc1c(C(=O)O)n(C)c3c-2c(Cl)ccc13 (single isomer, unassigned) [Compound 10]", "experimental_target": "Myeloid Cell Leukemia 1 (Mcl-1) (Homo sapiens)", "unit_name": "nM", "Ki": 19.8}
{"compound": "Cc1c2c(nn1C)C(C)OCc1cc(n(C)n1)CSc1cc(c3ccccc3c1)OCCCc1c(C(=O)O)n(C)c3c-2c(Cl)ccc13 (single isomer, unassigned) [Compound 9]", "experimental_target": "Myeloid Cell Leukemia 1 (Mcl-1) (Homo sapiens)", "unit_name": "nM", "Ki": 0.241}
